biological target: HLA-B*40:01; experiment: IEDB peptide-MHC binding, purified MHC/direct/fluorescence; filed as Kd, often an IC50 or EC50 that approximates it; bounds were set here for any values at or beyond the usual limits of such assays; conditions: source organism: Brucella suis
TEST_READOUT: Kd

SEQ_TEXT	TEST_READOUT	ASSAY_RESULT
YQRRRRFAI	Kd	≥ 20 µM

---

target: HLA-B*15:02; test: IEDB peptide-MHC binding, purified MHC/competitive/fluorescence; filed as Kd, often an IC50 or EC50 that approximates it; bounds were set here for any values at or beyond the usual limits of such assays; conditions: source organism: Bacillus licheniformis
TEST_READOUT: Kd

SEQ_TEXT	STUDY_TARGET	TEST_READOUT	ASSAY_RESULT
VQIPEKKCF	HLA-B*15:02	Kd	≥ 20 µM

---

molecular target: HLA-A*01:01; assay: IEDB peptide-MHC binding, purified MHC/competitive/radioactivity; filed as Kd, often an IC50 or EC50 that approximates it; bounds were set here for any values at or beyond the usual limits of such assays; settings: source organism: Mammarenavirus mopeiaense
TEST_READOUT: Kd

SEQ_TEXT	ASSAY_RESULT
PYIASRTSIV	≥ 44.5 µM

---

target: HLA-B*18:01; experiment: IEDB peptide-MHC binding, purified MHC/direct/fluorescence; filed as Kd, often an IC50 or EC50 that approximates it; bounds were set here for any values at or beyond the usual limits of such assays; conditions: source organism: Vibrio cholerae
TEST_READOUT: Kd (nM)

SEQ_TEXT	TEST_READOUT	ASSAY_RESULT
TTILGLLPM	Kd	12

---

molecular target: HLA-B*35:01; assay: IEDB peptide-MHC binding, purified MHC/direct/fluorescence; filed as Kd, often an IC50 or EC50 that approximates it; bounds were set here for any values at or beyond the usual limits of such assays; settings: source organism: Haemophilus influenzae
pKd: −log10 of the molar value.

SEQ_TEXT	STUDY_TARGET	pKd
LAEQFSGEY	HLA-B*35:01	7.78

---

target: HLA-B*27:03; assay: IEDB peptide-MHC binding, purified MHC/competitive/fluorescence; filed as Kd, often an IC50 or EC50 that approximates it; bounds were set here for any values at or beyond the usual limits of such assays; conditions: source organism: Giardia lamblia ATCC 50803

SEQ_TEXT	Kd
ALGGSCHTT	≥ 20 µM

---

biological target: HLA-B*07:02; test: IEDB peptide-MHC binding, purified MHC/direct/fluorescence; filed as Kd, often an IC50 or EC50 that approximates it; bounds were set here for any values at or beyond the usual limits of such assays; conditions: source organism: Yersinia enterocolitica

SEQ_TEXT	Kd, µM
YIFRNTINM	7.86

---

target: HLA-B*51:01; experiment: IEDB peptide-MHC binding, purified MHC/competitive/radioactivity; filed as Kd, often an IC50 or EC50 that approximates it; bounds were set here for any values at or beyond the usual limits of such assays; conditions: source organism: Hepacivirus hominis
pKd: −log10 of the molar value.
TEST_READOUT: pKd

SEQ_TEXT	ASSAY_RESULT
RPALVFDIT	≤ 4.51

---

target: HLA-A*23:01; experiment: IEDB peptide-MHC binding, purified MHC/competitive/radioactivity; filed as Kd, often an IC50 or EC50 that approximates it; bounds were set here for any values at or beyond the usual limits of such assays; details: source organism: Mammarenavirus juninense
pKd: −log10 of the molar value.

SEQ_TEXT	pKd
EDAMPGVLSY	4.79
